Molecular target: hOT7T175 (Homo sapiens, UniProt Q969F8, L364H)
Construct: expressed in transfected cells
Sequence (Q969F8 whole entry L364H): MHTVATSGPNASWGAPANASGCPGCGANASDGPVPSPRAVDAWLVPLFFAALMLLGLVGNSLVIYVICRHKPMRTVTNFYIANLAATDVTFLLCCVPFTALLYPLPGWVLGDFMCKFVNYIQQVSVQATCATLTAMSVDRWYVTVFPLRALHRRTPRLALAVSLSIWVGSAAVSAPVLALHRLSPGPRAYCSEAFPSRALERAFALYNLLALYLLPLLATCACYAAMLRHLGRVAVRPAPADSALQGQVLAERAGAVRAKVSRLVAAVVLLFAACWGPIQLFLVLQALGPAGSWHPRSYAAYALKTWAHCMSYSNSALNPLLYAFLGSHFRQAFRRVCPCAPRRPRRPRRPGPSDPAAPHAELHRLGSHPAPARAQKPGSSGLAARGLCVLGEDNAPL
Assay type: cell-based
Conditions: hOT7T175/CHO, FLIPR, evaluation for 40 seconds after initiation of the reaction
Non-standard residues stand in square brackets, D forms with d. NMeW = CN[C@@H](Cc1c[nH]c2ccccc12)C(=O)O; Arg(Me) = CNC(=N)NCCC[C@H](N)C(=O)O; azaGly = NNC(=O)O
Observed Property: Specific Act. (EC50/MS10 EC50)
Field format: numeric only.

Test system hOT7T175 (Homo sapiens, UniProt Q969F8, L364H); read-out Specific Act. (EC50/MS10 EC50); what value for Ac-Tyr-D-Tyr-D-Trp-Asn-Thr-Phe-AzaGly-Leu-Arg(Me)-Trp-NH2 (Ac-Y[dY][dW]NTF[azaGly]L[Arg(Me)]W-NH2; SMILES CNC(=N)NCCC[C@H](NC(=O)[C@H](CC(C)C)NC(=O)NNC(=O)[C@H](Cc1ccccc1)NC(=O)[C@@H](NC(=O)[C@H](CC(N)=O)NC(=O)[C@@H](Cc1c[nH]c2ccccc12)NC(=O)[C@@H](Cc1ccc(O)cc1)NC(=O)[C@H](Cc1ccc(O)cc1)NC(C)=O)[C@@H](C)O)C(=O)N[C@@H](Cc1c[nH]c2ccccc12)C(N)=O) [Compound No. 676] ?
1.4

What do you get for Ac-D-Tyr-NMeTrp-Asn-Thr-Phe-AzaGly-Leu-Arg(Me)-Trp-NH2 (Ac-[dY][NMeW]NTF[azaGly]L[Arg(Me)]W-NH2; SMILES CNC(=N)NCCC[C@H](NC(=O)[C@H](CC(C)C)NC(=O)NNC(=O)[C@H](Cc1ccccc1)NC(=O)[C@@H](NC(=O)[C@H](CC(N)=O)NC(=O)[C@H](Cc1c[nH]c2ccccc12)N(C)C(=O)[C@@H](Cc1ccc(O)cc1)NC(C)=O)[C@@H](C)O)C(=O)N[C@@H](Cc1c[nH]c2ccccc12)C(N)=O) [Compound No. 672] ?
2.1

The reported measurements were obtained from patent US8778871B2.
